Target: αLβ2/ICAM-1 (Homo sapiens, UniProt P05107+P20701)
Construct: The Jurkat (VCAM-1 assays) and HSB (ICAM-1 assays) cell lines were obtained from American Type Culture Collection; endogenous in cells; host or cells: HSB (ATCC)
Sequence (P20701 26-1170): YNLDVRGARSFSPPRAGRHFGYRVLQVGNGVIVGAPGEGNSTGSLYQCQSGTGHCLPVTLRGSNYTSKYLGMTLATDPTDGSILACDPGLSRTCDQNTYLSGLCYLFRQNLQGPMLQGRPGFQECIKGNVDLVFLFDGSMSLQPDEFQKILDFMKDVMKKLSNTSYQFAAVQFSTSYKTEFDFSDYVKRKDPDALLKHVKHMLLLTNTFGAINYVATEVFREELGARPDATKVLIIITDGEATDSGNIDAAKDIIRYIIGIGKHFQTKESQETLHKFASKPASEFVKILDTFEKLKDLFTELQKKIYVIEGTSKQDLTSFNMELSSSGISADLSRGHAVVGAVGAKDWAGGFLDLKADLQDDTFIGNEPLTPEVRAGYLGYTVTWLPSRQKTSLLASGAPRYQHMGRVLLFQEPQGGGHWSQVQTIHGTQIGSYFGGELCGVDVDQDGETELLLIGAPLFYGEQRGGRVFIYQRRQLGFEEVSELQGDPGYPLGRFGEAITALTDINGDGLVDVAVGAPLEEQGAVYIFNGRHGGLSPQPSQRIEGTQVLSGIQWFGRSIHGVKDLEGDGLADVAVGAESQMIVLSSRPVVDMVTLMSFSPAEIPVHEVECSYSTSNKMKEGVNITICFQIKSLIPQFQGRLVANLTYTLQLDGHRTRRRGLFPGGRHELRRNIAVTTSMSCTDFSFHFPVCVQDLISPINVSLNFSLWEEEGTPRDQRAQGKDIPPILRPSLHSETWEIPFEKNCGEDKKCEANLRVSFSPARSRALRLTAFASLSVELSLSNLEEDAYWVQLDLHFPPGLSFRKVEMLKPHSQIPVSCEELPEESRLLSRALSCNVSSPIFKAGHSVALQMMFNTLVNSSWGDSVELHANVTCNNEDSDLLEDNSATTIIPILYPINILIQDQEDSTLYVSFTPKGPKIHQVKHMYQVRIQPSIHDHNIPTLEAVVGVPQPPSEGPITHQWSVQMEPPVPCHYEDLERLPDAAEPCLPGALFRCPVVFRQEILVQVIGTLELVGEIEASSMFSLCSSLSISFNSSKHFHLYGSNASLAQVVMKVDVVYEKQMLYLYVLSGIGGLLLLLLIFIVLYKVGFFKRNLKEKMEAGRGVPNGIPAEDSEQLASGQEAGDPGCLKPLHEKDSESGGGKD
Sequence (P05107 23-769): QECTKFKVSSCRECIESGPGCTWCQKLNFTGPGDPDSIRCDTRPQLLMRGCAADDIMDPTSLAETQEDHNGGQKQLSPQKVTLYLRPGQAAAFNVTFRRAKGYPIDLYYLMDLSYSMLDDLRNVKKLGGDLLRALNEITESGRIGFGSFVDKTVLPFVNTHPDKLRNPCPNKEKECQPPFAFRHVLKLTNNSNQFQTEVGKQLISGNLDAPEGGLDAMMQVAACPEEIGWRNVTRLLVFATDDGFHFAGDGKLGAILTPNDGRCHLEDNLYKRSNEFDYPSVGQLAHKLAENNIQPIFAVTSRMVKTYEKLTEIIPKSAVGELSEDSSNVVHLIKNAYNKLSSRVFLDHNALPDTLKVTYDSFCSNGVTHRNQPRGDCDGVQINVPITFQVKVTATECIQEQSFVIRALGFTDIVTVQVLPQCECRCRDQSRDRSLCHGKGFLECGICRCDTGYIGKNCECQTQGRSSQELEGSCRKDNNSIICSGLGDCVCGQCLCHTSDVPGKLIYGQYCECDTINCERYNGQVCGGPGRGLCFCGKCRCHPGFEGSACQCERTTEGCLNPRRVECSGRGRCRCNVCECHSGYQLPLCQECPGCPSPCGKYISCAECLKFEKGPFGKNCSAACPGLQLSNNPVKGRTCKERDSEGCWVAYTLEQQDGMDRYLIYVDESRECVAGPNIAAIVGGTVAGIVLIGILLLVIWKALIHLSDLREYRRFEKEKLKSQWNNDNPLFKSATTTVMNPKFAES
Assay: Static cell adhesion assay, HSB cells on ICAM-1 (LFA-1; LAD)
Format: cell-based
Settings: RFU of compound / RFU of THI0349, both at the same concentration
Exercise: for every item that follows, state its recorded LAD Raw Fluorescence Units against LFA-1; Dose 3 µM; Ratio of raw counts Compound/THI0349.
// return just the number, without any unit appended

Entry under review: COc1cccc(CN(Cc2cccc(OC)c2)c2nc3c(s2)CN(C(=O)OC(C)(C)C)CC3)c1 . Reported LAD Raw Fluorescence Units against LFA-1; Dose 3 µM; Ratio of raw counts Compound/THI0349? 0.14

Entry under review: COc1cccc(CN(Cc2cccc(OC)c2)c2nc(COCCOc3cccc(C#N)c3)cs2)c1 . Reported LAD Raw Fluorescence Units against LFA-1; Dose 3 µM; Ratio of raw counts Compound/THI0349? 1.2

Entry under review: COc1cccc(CN(Cc2cccc(OC)c2)c2nc(COCCOCCN3CCCCC3)cs2)c1 . Reported LAD Raw Fluorescence Units against LFA-1; Dose 3 µM; Ratio of raw counts Compound/THI0349? 0.37

Entry under review: CCOC(=O)c1coc(N(Cc2ccc(OC)cc2)Cc2ccc(OC)cc2)n1 . Reported LAD Raw Fluorescence Units against LFA-1; Dose 3 µM; Ratio of raw counts Compound/THI0349? 0.52

Entry under review: COc1ccc(CN(Cc2ccc(OC)cc2)c2nc(COCCOCCO)cs2)cc1 . Reported LAD Raw Fluorescence Units against LFA-1; Dose 3 µM; Ratio of raw counts Compound/THI0349? 0.34

Entry under review: COc1cccc(CN(Cc2ccc(-n3cccn3)cc2)c2nc(C)cs2)c1 . Reported LAD Raw Fluorescence Units against LFA-1; Dose 3 µM; Ratio of raw counts Compound/THI0349? 0.03

Entry under review: COc1ccc(CCCNC(=O)c2csc(N(Cc3cccc(OC)c3)Cc3cccc(OC)c3)n2)cc1 . Reported LAD Raw Fluorescence Units against LFA-1; Dose 3 µM; Ratio of raw counts Compound/THI0349? 0.85

Entry under review: CCOC(=O)c1ccc(N(Cc2cccc(OC)c2)Cc2cccc(OC)c2)nc1 . Reported LAD Raw Fluorescence Units against LFA-1; Dose 3 µM; Ratio of raw counts Compound/THI0349? 0.09

====

Molecular target: αLβ2/ICAM-1 (Homo sapiens, UniProt P05107+P20701)
Construct: The Jurkat (VCAM-1 assays) and HSB (ICAM-1 assays) cell lines were obtained from American Type Culture Collection; endogenous in cells; host or cells: HSB (ATCC)
Assay: Static cell adhesion assay, HSB cells on ICAM-1 (LFA-1; LAD)
Type: cell-based
Settings: RFU of compound / RFU of THI0349, both at the same concentration
Exercise: for every item that follows, state its recorded LAD Raw Fluorescence Units against LFA-1; Dose 3 µM; Ratio of raw counts Compound/THI0349.
// return just the number, without any unit appended

Could you share what LAD Raw Fluorescence Units against LFA-1; Dose 3 µM; Ratio of raw counts Compound/THI0349 was measured for COc1cccc(COc2cccc(N(Cc3cccc(OC)c3)Cc3cccc(OC)c3)c2)c1 , tested on αLβ2/ICAM-1 (Homo sapiens, UniProt P05107+P20701)? 0.6

Could you share what LAD Raw Fluorescence Units against LFA-1; Dose 3 µM; Ratio of raw counts Compound/THI0349 was measured for COc1cccc(COCCOCc2csc(N(Cc3cccc(OC)c3)Cc3cccc(OC)c3)n2)c1 , tested on αLβ2/ICAM-1 (Homo sapiens, UniProt P05107+P20701)? 0.25

Could you share what LAD Raw Fluorescence Units against LFA-1; Dose 3 µM; Ratio of raw counts Compound/THI0349 was measured for COc1cccc(CN(Cc2cccc(OC)c2)c2nc(COCCOCCOc3ccc(N(C)C)cc3)cs2)c1 , tested on αLβ2/ICAM-1 (Homo sapiens, UniProt P05107+P20701)? 1.5

Could you share what LAD Raw Fluorescence Units against LFA-1; Dose 3 µM; Ratio of raw counts Compound/THI0349 was measured for COc1cccc(COCc2csc(N(Cc3ccc(-n4cccn4)cc3)Cc3cccc(OC)c3)n2)c1 , tested on αLβ2/ICAM-1 (Homo sapiens, UniProt P05107+P20701)? 0.28

Entry source: patent US20240360113A1
